target: T1, human galectin-10-His (recombinant human galectin-10 with TEV-cleavable N-terminal His-tag) (human)
T1 construct: SEC-MALLS: dimer in solution; also called Gal10-His; humanGal10-His
T1 chain: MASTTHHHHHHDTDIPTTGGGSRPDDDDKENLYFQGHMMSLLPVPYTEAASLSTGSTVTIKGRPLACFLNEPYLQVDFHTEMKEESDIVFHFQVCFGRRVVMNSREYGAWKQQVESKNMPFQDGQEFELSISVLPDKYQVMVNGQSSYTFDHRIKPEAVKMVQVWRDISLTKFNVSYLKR
measurement_notes: BLI tandem on galectin-10-His; competitor: saturating 1D11 mIgG1 (10 ug/mL)
endpoint: binding signal (nm)
Give your result in nm as a bare value.

Example entries and their recorded answers appear below.
[
  {
    "binder": "6F06 mouse IgG1 (antibody, V domains shown, also called 6F06 mIgG1) VH: QVQLVESGGGLVQPGGSLRLSCAASEFTFSRYSMSWVRQAPGKGLEWVSTINSGGGSTSYVDSVKGRFTISRDNAKNTLYLQMNSLKPEDTAVYYCTKSQGGISFSTQYGMDYWGKGTLVTVSS VL: NFMLTQPSAVSVSLGQTARITCQGGNFGRYYANWYQQKPGQAPVLVIYKDSERPSGIPERFSGSSSGDTATLTISGAQAEDESDYYCQSGSVSDNAVFGGGTHLAVL",
    "readout_units": "nm",
    "binding signal (nm)": 0.06
  },
  {
    "binder": "6B06 mouse IgG1 (antibody, V domains shown, also called 6B06 mIgG1) VH: QVQRQESGPGLVKPSQTLSLTCTVSGGSITTNYYSWSWIRQPPGKGLEWIGYIAYSGSTSYSPSLKSRTSISRDTSNNQFSLQLSSVTPEDTAVYYCARSRSSPTTFGMDYWGKGTLVTVSS VL: SSALTQPSAVSVSLGQTARITCQGGNFGRYYVSWYTQKPGQAPVLVIYQDSERPTGIPERFSGSSSGDTATLTISGAQAEDEADYYCQSGTSSDNIVFGGGTHLTVL",
    "readout_units": "nm",
    "binding signal (nm)": 0.07
  }
]

We now examine a further binder.
Qu. Sample 6A05 mouse IgG1 (antibody, V domains shown, also called 6A05 mIgG1) VH: EVQLVESGGGLVQPGGSLRLSCAASGFTFSSYAMSWVRQAPGKGLEWVSAINSGGGWTSYVDSVKGRFTISRDNAKNTLYLQMDSLKPEDTAVYYCTKYSGPELNTQYGMDYWGKGTLVTVSS VL: NFMLTQPSAVSVSLGQTARITCQGGNFGSYYASWYQQKPGQAPVLVIYRDSGRPSGIPERFSGSSSGDTATLTISGAQAEDEADYYCQSGSSSDNTVFGGGTHLTVL — what was its binding signal (nm)?
Ans. 0.04
